- protocol.description: protein stability index of a GFP-peptide fusion (yeast GPS) (PSI 1-4); higher = more stable; sorted into four equal gates, so the index is relative within each strain
- experimental.conditions: ubr1∆
attribute.measured: protein stability index
Respond numerically, and do not add a unit to the figure.

sequence_code="ANVIKALAFCEIGITQQ [RRP4]" endpoint_value=2.26
sequence_code="LGTVQREIESLIAEETN [SMC3]" endpoint_value=2.91
sequence_code="GEEDAVDLLLEIESIDK [RPN1]" endpoint_value=3.33

The recorded protein stability index for entry LAVEDKPSPIDSGIGSN [CSL4] equals 3.08

The recorded protein stability index for entry NVSDEQLSNWQKIRNSE [ITC1] equals 2.98

The recorded protein stability index for entry CVKNHGQSSSIQSSLMT [YCS4] equals 3.05

The recorded protein stability index for entry TTLHGPGFQLPNRITLT [SRB8] equals 2.89

The recorded protein stability index for entry SNVNSDIYFKLKKLEKE [RPT3] equals 3.03

The recorded protein stability index for entry SFLSGVKSLLSEEKIRD [SIR4] equals 2.92

The recorded protein stability index for entry FDNFLTEEELQAAVPDN [BRN1] equals 2.65

----------
- protocol.description: protein stability index of a GFP-peptide fusion (yeast GPS) (PSI 1-4); higher = more stable; sorted into four equal gates, so the index is relative within each strain
- experimental.conditions: san1∆
attribute.measured: protein stability index
Respond numerically, and do not add a unit to the figure.

The recorded protein stability index for entry HDVLQKLNTLSEILSFD [YML103C/NUP188] equals 3.03

The recorded protein stability index for entry LGTVQREIESLIAEETN [SMC3] equals 3.01

The recorded protein stability index for entry RVGVVSILEAGDSDILT [RPL30] equals 2.98

----------
- protocol.description: protein stability index of a GFP-peptide fusion (yeast GPS) (PSI 1-4); higher = more stable; sorted into four equal gates, so the index is relative within each strain
- experimental.conditions: san1∆
Decide by protein stability index: equal to or exceeding 2 means 1, less means -1.

Reference set, count: 3
sequence_code="CWLSSVDVNTQKSFEQL [RPN11]" label_value=-1
sequence_code="NSSKPAFSFGAKSNEDK [YJL041W/NSP1]" label_value=1
sequence_code="SSIDRGFGRCETRRKTT [RET1]" label_value=1

Query: Hi, just wondering whether EVIGYIAAGTYGKVYKA [SSN3] shows protein stability index of 2 or higher.
Result: 1

Query: Hi, just wondering whether RLIDLSGCENITDKTIE [GRR1] shows protein stability index of 2 or higher.
Result: 1

Query: Hi, just wondering whether KKVQALQSDKNFLDNCL [ITC1] shows protein stability index of 2 or higher.
Result: 1

----------
- protocol.description: protein stability index of a GFP-peptide fusion (yeast GPS) (PSI 1-4); higher = more stable; sorted into four equal gates, so the index is relative within each strain
- experimental.conditions: san1∆
Decide by protein stability index: equal to or exceeding 3 means satisfied, less means not satisfied.

Reference set, count: 8
sequence_code="YNGRGARERKTATYNDN [SNF2]" label_value="not satisfied"
sequence_code="KQFDSIFNSNKAKIIPG [SIR4]" label_value="not satisfied"
sequence_code="VKIRATGGTRTKTPGPG [RPS14A]" label_value="not satisfied"
sequence_code="DPNIKVNDTVKIDLASG [RPS4A]" label_value="not satisfied"
sequence_code="TTTNTDQNNATMGEETA [SNF12]" label_value=satisfied
sequence_code="VVLGVEKRATSPLLESD [PUP2]" label_value=satisfied
sequence_code="SNDFEEGSTIRYLAVTL [YMR129W/POM152]" label_value="not satisfied"
sequence_code="SELFDEWFEQNNSEQDQ [ISW2]" label_value="not satisfied"

Could you now consider this next sequence?
Query: Hi, just wondering whether KKHKQKKVLEIDFFKTD [BRN1] shows protein stability index of 3 or higher.
Result: not satisfied

----------
- protocol.description: protein stability index of a GFP-peptide fusion (yeast GPS) (PSI 1-4); higher = more stable; sorted into four equal gates, so the index is relative within each strain
- experimental.conditions: ubr1∆
Decide by protein stability index: equal to or exceeding 3 means condition met, less means condition not met.

Reference set, count: 3
sequence_code="APMDFAIVVGWRAIIKA [FAS1]" label_value="condition not met"
sequence_code="DVEENRSEFIESLLNWI [YJR042W/NUP85]" label_value="condition met"
sequence_code="QIDQLNRLLPNLPEEER [GRR1]" label_value="condition not met"

Query: Hi, just wondering whether ATAAESDVAKQLAALGY [RPL16A] shows protein stability index of 3 or higher.
Result: condition met

Query: Hi, just wondering whether RNAEFKVSKNSTSFKNP [YMR153W/NUP53] shows protein stability index of 3 or higher.
Result: condition not met

----------
Measured protein stability index by item
- protocol.description: protein stability index of a GFP-peptide fusion (yeast GPS) (PSI 1-4); higher = more stable; sorted into four equal gates, so the index is relative within each strain
- experimental.conditions: pdr5∆
Respond numerically, and do not add a unit to the figure.

# annotated cases, reported protein stability index shown
sequence_code="NDDALDLDLDLFDPDDF [MED4]" attribute_measured="protein stability index" endpoint_value=3.04
sequence_code="LLPTNNGQPLNQNFSLT [GRR1]" attribute_measured="protein stability index" endpoint_value=2.95

Next:
The recorded protein stability index for entry TTDANGSKENYQELGSL [MED2] equals 3.09

----------
- protocol.description: protein stability index of a GFP-peptide fusion (yeast GPS) (PSI 1-4); higher = more stable; sorted into four equal gates, so the index is relative within each strain
- experimental.conditions: san1∆
attribute.measured: protein stability index

# annotated cases, reported protein stability index shown
sequence_code="KLKNNASRSQLEKGEIE [YJL039C/NUP192]" attribute_measured="protein stability index" endpoint_value=2.66
sequence_code="NDEPSHKKIKVAQPDSL [SIR2]" attribute_measured="protein stability index" endpoint_value=1.63
sequence_code="NDDSSSMNATMRNFSKQ [YDL088C/ASM4]" attribute_measured="protein stability index" endpoint_value=2.71
sequence_code="KVGQFDQVLNLCLTEFE [FAS1]" attribute_measured="protein stability index" endpoint_value=2.73
sequence_code="ISLHENKLSGILADEMG [ISW2]" attribute_measured="protein stability index" endpoint_value=2.71
sequence_code="AYSSRFQTPFRRRREGK [RPL5]" attribute_measured="protein stability index" endpoint_value=2.58
sequence_code="DSGIGSNGSGIVAAGGG [CSL4]" attribute_measured="protein stability index" endpoint_value=3.35
sequence_code="AIPLLKVLRKFRVQSQS [NUT1]" attribute_measured="protein stability index" endpoint_value=1.69

Next:
The recorded protein stability index for entry TAEERVGRRAANLRVLN [RPL15A] equals 2.75

----------
- protocol.description: protein stability index of a GFP-peptide fusion (yeast GPS) (PSI 1-4); higher = more stable; sorted into four equal gates, so the index is relative within each strain
- experimental.conditions: doa10∆
Decide by protein stability index: equal to or exceeding 2 means Yes, less means No.

Reference set, count: 10
sequence_code="TEVSRKSMKYVKKILPL [ECM29]" label_value=Yes
sequence_code="LNSFVNDIFERIATEAS [HTB1]" label_value=Yes
sequence_code="TQLQICLDQMTEQFCAT [SRB7]" label_value=Yes
sequence_code="YYGCLENDHERGFFHLN [CSN12]" label_value=Yes
sequence_code="KRHRSSYYDNDLDETTQ [YML031W/NDC1]" label_value=Yes
sequence_code="TNSPQISVTRQVVLGGT [SMC2]" label_value=Yes
sequence_code="PSEDVAAPKKTRKAVRP [RPL6B]" label_value=Yes
sequence_code="LLATKQHDSSANEDEEE [CSN12]" label_value=Yes
sequence_code="PPLLVYKWTQGINNLSE [PRP8]" label_value=Yes
sequence_code="INYHQYISKAQNDQWSI [SSN2]" label_value=Yes

Could you now consider this next sequence?
Query: Hi, just wondering whether LLIDQFSPVISQSLTSI [SWI1] shows protein stability index of 2 or higher.
Result: No

----------
Measured protein stability index by item
- protocol.description: protein stability index of a GFP-peptide fusion (yeast GPS) (PSI 1-4); higher = more stable; sorted into four equal gates, so the index is relative within each strain
- experimental.conditions: pdr5∆
Respond numerically, and do not add a unit to the figure.

# annotated cases, reported protein stability index shown
sequence_code="SRGFEVMYNGHTGKKLM [RPB2]" attribute_measured="protein stability index" endpoint_value=3.33
sequence_code="KMENLMRLIKRVRAESL [YJL039C/NUP192]" attribute_measured="protein stability index" endpoint_value=1.19
sequence_code="PDEAIEKVFNAYPAARE [FAS1]" attribute_measured="protein stability index" endpoint_value=3.22
sequence_code="FTPKLIYDFITLFSSIE [ECM29]" attribute_measured="protein stability index" endpoint_value=2.1

The recorded protein stability index for entry RPFEGLFVISTEISPMA [RRP45] equals 2.87

The recorded protein stability index for entry AELKLAGEFGLKNKKEI [RPS9A] equals 3.21
